# Tested target: UniProt:P25774
# Sequence (P25774 115-331): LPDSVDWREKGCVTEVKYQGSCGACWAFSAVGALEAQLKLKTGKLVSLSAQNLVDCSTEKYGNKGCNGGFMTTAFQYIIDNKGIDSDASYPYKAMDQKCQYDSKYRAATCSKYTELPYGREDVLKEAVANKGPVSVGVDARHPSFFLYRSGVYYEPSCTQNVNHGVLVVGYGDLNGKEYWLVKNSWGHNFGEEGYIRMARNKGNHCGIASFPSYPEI
# Method: Cathepsin S inhibition assay, human recombinant enzyme, Cbz-Val-Val-Arg-AMC
# Assay setup: Table 2, human cathepsin S; read-out: h Cat S IC50
# Procedure: All assays for cathepsin K were carried out with human and rat recombinant enzyme. Assays for cathepsins S ? V were also carried out with human recombinant enzyme. […] All assays contained 10% dimethyl sulfoxide. […] Product fluorescence (excitation at 360 nm; emission at 440 nm, (except cathepsin H which used excitation at 340 nm; emission at 420 nm)) was monitored with a PerSeptive Biosystems Cytofluor II fluorescence plate reader. […] Potential inhibitors were evaluated using the progress curve method. […]
Measurement label: IC50

>>> recorded_result("CCCC[C@H](NC(=O)O[C@@H]1CN(c2nnc(C(F)(F)F)s2)CC1(C)C)C(=O)C(=O)Nc1ccn[nH]1")
"10 to 100 nM"
>>> recorded_result("CCCC[C@H](NC(=O)O[C@@H]1CN(C(=O)Nc2ccc(C(F)(F)F)cc2)CC1(C)C)C(=O)C(=O)Nc1ccn[nH]1")
"1 to 10 nM"

* * *

# Tested target: human cathepsin K (Homo sapiens, UniProt P43235)
# Construct: The proform of cathepsin K was converted to mature cathepsin K by brief exposure to pH 4; made in house; host or cells: baculovirus; Trichoplusia ni High Five cells (virus raised in Sf-9)
# Sequence (P43235 115-329): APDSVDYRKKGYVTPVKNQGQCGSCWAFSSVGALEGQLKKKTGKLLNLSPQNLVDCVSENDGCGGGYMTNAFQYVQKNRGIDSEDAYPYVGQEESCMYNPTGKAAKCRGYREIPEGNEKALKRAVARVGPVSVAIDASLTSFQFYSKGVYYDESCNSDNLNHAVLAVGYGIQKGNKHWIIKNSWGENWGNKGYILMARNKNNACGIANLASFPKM
# Method: Cathepsin K inhibition assay, human recombinant enzyme, fluorogenic substrate Cbz-Phe-Arg-AMC
# Type: biochemical
# Assay setup: Table 1, human cathepsin K; read-out: h Cat K IC50
pIC50: −log10 of the molar value.
Catalogue of pIC50 readings, one per entry.
Measurement label: pIC50

>>> recorded_result("CCCC[C@H](NC(=O)O[C@@H]1C(=O)OCC1(C)C)C(=O)C(=O)N[C@H](C)c1ccccc1 [Example 1]")
"8.00 to 9.00"
>>> recorded_result("CCCC[C@H](NC(=O)O[C@@H]1CN(C(=O)c2cccnc2)CC1(C)C)C(=O)C(=O)N[C@H](C)c1ccccc1 [Example 66]")
"7.00 to 8.00"
>>> recorded_result("CCCC[C@H](NC(=O)O[C@@H]1CN(C(=O)O[C@H]2CCOC2)CC1(C)C)C(=O)C(=O)N[C@H](C)c1ccccc1 [Example 43]")
"7.00 to 8.00"
>>> recorded_result("CCCC[C@H](NC(=O)O[C@@H]1CN(C(=O)OCc2ccccc2)CC1(C)C)C(=O)C(=O)N[C@H](C)c1ccccc1 [Example 44]")
"7.00 to 8.00"
>>> recorded_result("CCCC[C@H](NC(=O)O[C@@H]1CN(C(=O)NCCc2ccccc2)CC1(C)C)C(=O)C(=O)N[C@H](C)c1ccccc1 [Example 65]")
"8.00 to 9.00"
>>> recorded_result("CCCC[C@H](NC(=O)O[C@@H]1CN(C(=O)NCc2ccccc2)CC1(C)C)C(=O)C(=O)N[C@H](C)c1ccccc1 [Example 64]")
"8.00 to 9.00"
>>> recorded_result("CCCC[C@H](NC(=O)O[C@@H]1CN(C(=O)Oc2ccc(Oc3ccccc3)cc2)CC1(C)C)C(=O)C(=O)N[C@H](C)c1ccccc1 [Example 58]")
"7.00 to 8.00"

* * *

# Tested target: human cathepsin K (Homo sapiens, UniProt P43235)
# Construct: The proform of cathepsin K was converted to mature cathepsin K by brief exposure to pH 4; made in house; host or cells: baculovirus; Trichoplusia ni High Five cells (virus raised in Sf-9)
# Method: Cathepsin K inhibition assay, human recombinant enzyme, fluorogenic substrate Cbz-Phe-Arg-AMC
# Assay type: biochemical
# Assay setup: Table 1, human cathepsin K; read-out: h Cat K IC50
pIC50: −log10 of the molar value.
Measurement label: pIC50

>>> recorded_result("CCCC[C@H](NC(=O)O[C@@H]1CN(C(=O)OCc2ccc(-c3ccccc3)cc2)CC1(C)C)C(=O)C(=O)N[C@H](C)c1ccccc1")
"8.00 to 9.00"
>>> recorded_result("CCCC[C@H](NC(=O)OC1C(=O)N(C(=O)OCc2ccccc2)CC1(C)C)C(=O)C(=O)N[C@H](C)c1ccccc1 (stereo partly shown)")
"7.00 to 8.00"
>>> recorded_result("CCCC[C@H](NC(=O)OC1C(=O)N(C)CC1(C)C)C(=O)C(=O)N[C@H](C)c1ccccc1 (stereo partly shown)")
"7.00 to 8.00"
>>> recorded_result("CCCC[C@H](NC(=O)O[C@@H]1CN(C(=O)Cc2cc(C)no2)CC1(C)C)C(=O)C(=O)N[C@H](C)c1ccccc1")
"8.00 to 9.00"
>>> recorded_result("CCCC[C@H](NC(=O)O[C@@H]1CN(C(=O)NC(=O)c2ccccc2)CC1(C)C)C(=O)C(=O)N[C@H](C)c1ccccc1")
"7.00 to 8.00"
>>> recorded_result("CCCC[C@H](NC(=O)O[C@@H]1CN(C(=O)c2csc(-c3snnc3C)n2)CC1(C)C)C(=O)C(=O)N[C@H](C)c1ccccc1")
"7.00 to 8.00"
>>> recorded_result("CCCC[C@H](NC(=O)O[C@@H]1CN(C(=O)c2snnc2C)CC1(C)C)C(=O)C(=O)N[C@H](C)c1ccccc1")
"7.00 to 8.00"
>>> recorded_result("CCCC[C@H](NC(=O)O[C@@H]1CN(C(=O)c2ccc3[nH]nnc3c2)CC1(C)C)C(=O)C(=O)N[C@H](C)c1ccccc1")
"8.00 to 9.00"
>>> recorded_result("CCCC[C@H](NC(=O)O[C@@H]1CN(C(=O)OCc2cc(C)on2)CC1(C)C)C(=O)C(=O)N[C@H](C)c1ccccc1")
"7.00 to 8.00"
>>> recorded_result("CCCC[C@H](NC(=O)O[C@@H]1CN(C(=O)OCc2ccsc2)CC1(C)C)C(=O)C(=O)N[C@H](C)c1ccccc1")
"7.00 to 8.00"
>>> recorded_result("CCCC[C@H](NC(=O)O[C@@H]1CN(C(C)=O)CC1(C)C)C(=O)C(=O)N[C@H](C)c1ccccc1")
"7.00 to 8.00"
>>> recorded_result("CCCC[C@H](NC(=O)O[C@@H]1CN(C(=O)c2ccc3c(c2)OCO3)CC1(C)C)C(=O)C(=O)N[C@H](C)c1ccccc1")
"8.00 to 9.00"
>>> recorded_result("CCCC[C@H](NC(=O)O[C@@H]1CN(C(=O)Cc2cccc(Oc3ccccc3)c2)CC1(C)C)C(=O)C(=O)N[C@H](C)c1ccccc1")
"7.00 to 8.00"

* * *

Catalogue of pIC50 readings, one per entry.
# Tested target: human cathepsin K (Homo sapiens, UniProt P43235)
# Construct: The proform of cathepsin K was converted to mature cathepsin K by brief exposure to pH 4; made in house; host or cells: baculovirus; Trichoplusia ni High Five cells (virus raised in Sf-9)
# Method: Cathepsin K inhibition assay, human recombinant enzyme, fluorogenic substrate Cbz-Phe-Arg-AMC
# Assay type: biochemical
# Assay setup: Table 2, human cathepsin K; read-out: h Cat K IC50
pIC50: −log10 of the molar value.
Measurement label: pIC50

>>> recorded_result("CCCC[C@H](NC(=O)O[C@@H]1CN(C(=O)Nc2ccc(C(F)(F)F)cc2)CC1(C)C)C(=O)C(=O)Nc1ccn[nH]1")
"9.00 to 10.00"
>>> recorded_result("CCCC[C@H](NC(=O)O[C@@H]1CN(c2nnc(C(F)(F)F)s2)CC1(C)C)C(=O)C(=O)Nc1ccn[nH]1")
"9.00 to 10.00"

* * *

# Tested target: human cathepsin K (Homo sapiens, UniProt P43235)
# Construct: The proform of cathepsin K was converted to mature cathepsin K by brief exposure to pH 4; made in house; host or cells: baculovirus; Trichoplusia ni High Five cells (virus raised in Sf-9)
# Method: Cathepsin K inhibition assay, human recombinant enzyme, fluorogenic substrate Cbz-Phe-Arg-AMC
# Type: biochemical
# Assay setup: Table 1, human cathepsin K; read-out: h Cat K IC50
Catalogue of IC50 readings, one per entry.
Measurement label: IC50

>>> recorded_result("CCCC[C@H](NC(=O)O[C@@H]1CN(C(=O)c2nc[nH]n2)CC1(C)C)C(=O)C(=O)N[C@H](C)c1ccccc1")
"0.01 to 0.1 µM"
>>> recorded_result("CCCC[C@H](NC(=O)O[C@@H]1CN(C(=O)OCC2CCCO2)CC1(C)C)C(=O)C(=O)N[C@H](C)c1ccccc1 (stereo partly drawn)")
"0.001 to 0.01 µM"
>>> recorded_result("CCCC[C@H](NC(=O)O[C@@H]1CN(C(=O)Oc2ccc(-c3csnn3)cc2)CC1(C)C)C(=O)C(=O)N[C@H](C)c1ccccc1")
"0.01 to 0.1 µM"
>>> recorded_result("CCCC[C@H](NC(=O)O[C@@H]1CN(S(=O)(=O)c2ccccc2)CC1(C)C)C(=O)C(=O)N[C@H](C)c1ccccc1")
"0.001 to 0.01 µM"
>>> recorded_result("CCCC[C@H](NC(=O)O[C@@H]1CN(C(=O)c2cc3ccccc3[nH]2)CC1(C)C)C(=O)C(=O)N[C@H](C)c1ccccc1")
"0.01 to 0.1 µM"
>>> recorded_result("CCCCC(NC(=O)O[C@@H]1CN(Cc2ccccc2)CC1(C)C)C(=O)C(=O)N[C@H](C)c1ccccc1 (stereo partly drawn)")
"0.01 to 0.1 µM"
